Δ RFU in non-transformed cells for assorted compounds
Tested on: non-transformed cells
Experiment: Test 9: TRPA1 activity test, non-transformed cells
Format: cell-based, human
Conditions: maximum values, average ± standard deviation; concentration after adding per Table 7 (10.2-28.2 ppm)
READOUT_NAME: Δ RFU in non-transformed cells

INSERT INTO results (compound, test_result) VALUES
  ('CCCCCOC(=O)CCCCC [Example 26, Pentyl caproate]', '0.3 ± 0.1'),
  ('CC(=O)OCCC(C)C [Example 13, Isoamyl acetate]', '0.2 ± 0.0'),
  ('CCCCCC(=O)OC [Example 21, Methyl caproate]', '0.2 ± 0.0'),
  ('CCCCCC(=O)OCCC(C)C [Example 25, Isoamyl caproate]', '0.2 ± 0.0'),
  ('CCCCCCCCCCCC(=O)OCC [Comparative Example 14, Ethyl laurate, reference compound]', '0.2 ± 0.0');
